For each record, write down the corresponding pIC50.
# target-entity: human CatL (Homo sapiens (Human), UniProt P07711)
# Sequence (P07711 whole entry, looked up): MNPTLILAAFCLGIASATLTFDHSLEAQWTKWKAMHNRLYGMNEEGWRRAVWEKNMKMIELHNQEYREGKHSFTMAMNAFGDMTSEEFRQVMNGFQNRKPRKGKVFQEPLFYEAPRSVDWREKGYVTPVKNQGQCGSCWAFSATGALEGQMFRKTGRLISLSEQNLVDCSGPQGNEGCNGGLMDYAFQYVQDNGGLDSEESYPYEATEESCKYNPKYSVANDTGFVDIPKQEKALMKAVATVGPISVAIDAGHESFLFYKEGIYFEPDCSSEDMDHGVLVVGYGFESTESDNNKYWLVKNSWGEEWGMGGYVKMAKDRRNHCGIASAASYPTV
# method-notes: Human Cathepsin L (CatL) enzymatic assay
# Assay type: biochemical
# setup-conditions: summary of Table 2; read-out: IC50 for inhibiting CatL
pIC50: −log10 of the molar value.

Per the record, CC(C)(C)c1cc(C(=O)N[C@@H](Cc2nc3ccc(C4=CCN(CC(F)F)CC4)cc3o2)C(=O)NC2(C#N)CC2)n(C2CC2)n1 has pIC50 of > 8.00

Please fill in: pIC50 reported for CN1CC=C(c2ccc3nc(C[C@H](NC(=O)c4cccc(Cl)c4)C(=O)NC4(C#N)CC4)oc3c2)CC1 = > 8.00

Reported pIC50 of CN1CCN(c2ccc3nc(C[C@H](NC(=O)c4cc(C(C)(C)C)nn4C4CC4)C(=O)NC4(C#N)CC4)oc3c2)CC1 : > 8.00

Briefly, pIC50 measured for Cc1cccc(-c2ccc3nc(C[C@H](NC(=O)c4cc(C5(C)CC5)nn4C4CC4)C(=O)NC4(C#N)CC4)oc3c2)n1 : > 7.30

Documented pIC50 of Cn1nc(C(C)(C)C)cc1C(=O)N[C@@H](Cc1nc2ccccc2o1)C(=O)NC1(C#N)CC1 : > 8.00

In plain terms, N#CC1(NC(=O)[C@H](Cc2nc3ccccc3s2)NC(=O)c2cccc(Cl)c2)CC1 has a documented pIC50 of > 7.30

These entries and their values trace back to patent US11858905B1.
